Just for reference, patent US5441983A is where these values come from.

- Tested on: HSV-2
- assay_explanation: Plaque reduction assay, HSV-2, Vero cells
- Type: cell-based, HSV-2 (333)
- measurement_conditions: Human alphaherpesvirus 2, Vero
Lab note: anything with IC50 below 3 µg/mL is marked MET; values at 3 µg/mL or higher are marked NOT MET.

{"columns": ["molecule", "group_label"],
 "data": [
  ["O=C(O)C1c2c(S(=O)(=O)O)cc3cc(S(=O)(=O)O)c(c(O)c3c2O)C(C(=O)O)c2c(S(=O)(=O)O)cc3cc(S(=O)(=O)O)c(c(O)c3c2O)C(C(=O)O)c2c(S(=O)(=O)O)cc3cc(S(=O)(=O)O)c(c(O)c3c2O)C(C(=O)O)c2c(S(=O)(=O)O)cc3cc(S(=O)(=O)O)c1c(O)c3c2O (centres unmarked)", "NOT MET"],
  ["CC(=O)C1c2c(S(=O)(=O)O)cc3cc(S(=O)(=O)O)c(c(O)c3c2O)C(C(C)=O)c2c(S(=O)(=O)O)cc3cc(S(=O)(=O)O)c(c(O)c3c2O)C(C(C)=O)c2c(S(=O)(=O)O)cc3cc(S(=O)(=O)O)c(c(O)c3c2O)C(C(C)=O)c2c(S(=O)(=O)O)cc3cc(S(=O)(=O)O)c1c(O)c3c2O (centres unmarked)", "NOT MET"],
  ["O=S(=O)(O)c1c2c(O)c3c(O)c(c(S(=O)(=O)O)c(Br)c3c1Br)Cc1c(S(=O)(=O)O)c(Br)c3c(Br)c(S(=O)(=O)O)c(c(O)c3c1O)Cc1c(S(=O)(=O)O)c(Br)c3c(Br)c(S(=O)(=O)O)c(c(O)c3c1O)Cc1c(S(=O)(=O)O)c(Br)c3c(Br)c(S(=O)(=O)O)c(c(O)c3c1O)C2", "MET"],
  ["O=S(=O)(O)c1c2c(O)c3c(O)c(c(S(=O)(=O)O)c(O)c3c1O)Cc1c(S(=O)(=O)O)c(O)c3c(O)c(S(=O)(=O)O)c(c(O)c3c1O)Cc1c(S(=O)(=O)O)c(O)c3c(O)c(S(=O)(=O)O)c(c(O)c3c1O)Cc1c(S(=O)(=O)O)c(O)c3c(O)c(S(=O)(=O)O)c(c(O)c3c1O)C2", "NOT MET"],
  ["COc1c2c(S(=O)(=O)O)cc3cc(S(=O)(=O)O)c(c(OC)c13)Cc1c(S(=O)(=O)O)cc3cc(S(=O)(=O)O)c(c(OC)c3c1OC)Cc1c(S(=O)(=O)O)cc3cc(S(=O)(=O)O)c(c(OC)c3c1OC)Cc1c(S(=O)(=O)O)cc3cc(S(=O)(=O)O)c(c(OC)c3c1OC)C2", "MET"],
  ["O=S(=O)(O)c1cc2cc(S(=O)(=O)O)c3c(O)c2c(O)c1Cc1c(S(=O)(=O)O)cc2cc(S(=O)(=O)O)c(c(O)c2c1O)Cc1c(S(=O)(=O)O)cc2cc(S(=O)(=O)O)c(c(O)c2c1O)Cc1c(S(=O)(=O)O)cc2cc(S(=O)(=O)O)c(c(O)c2c1O)C3", "MET"]
]}

Now for another entry.
Exam item: Would you kindly verify if IC50 of O=S(=O)(O)c1cc2c(O)c(c1)Cc1cc(S(=O)(=O)O)cc(c1O)Cc1cc(S(=O)(=O)O)cc(c1O)Cc1cc(S(=O)(=O)O)cc(c1O)C2 is strictly less than 3 µg/mL?
Marked response: NOT MET

====

- System: HSV-2 333
- assay_explanation: Inhibition of viral yield, wild type HSV-2 333
- measurement_conditions: Human alphaherpesvirus 2, HeLa, read-out: ID90
Kindly state IC90 for each of the entries shown.

{"columns": ["compound", "reported_endpoint", "result"],
 "data": [
  ["O=S(=O)(O)c1cc2cc(S(=O)(=O)O)c3c(O)c2c(O)c1Cc1c(S(=O)(=O)O)cc2cc(S(=O)(=O)O)c(c(O)c2c1O)Cc1c(S(=O)(=O)O)cc2cc(S(=O)(=O)O)c(c(O)c2c1O)Cc1c(S(=O)(=O)O)cc2cc(S(=O)(=O)O)c(c(O)c2c1O)C3 [KY-1]", "IC90", "3.2 µg/mL"],
  ["O=C(O)P(=O)(O)O [PFA, phosphonoformate]", "IC90", "150 µM"],
  ["Nc1ncnc2c1ncn2CCOCP(=O)(O)O [PMEA, phosphomethoxyethyladenine]", "IC90", "155 µM"],
  ["Nc1nc2c(ncn2COCCO)c(=O)[nH]1 [ACV, acyclovir, reference compound]", "IC90", "~10 µM"]
]}

# context switch: different compound, same IC90
Exam item: For the compound shown here, Nc1nc(O)c2ncn(COC(CO)CO)c2n1 [DHPG, ganciclovir] , give the reported IC90.
Marked response: 2 µM

====

- Test system: Influenza A (Taiwan)
- assay_explanation: Inhibition of influenza A cytopathic effect (clumping) in MDCK cells
- Format: cell-based, Influenza A virus (A/Taiwan strain)
- measurement_conditions: Influenza A virus, 24 h, 50% reduction in percent clumped cells, read-out: ED50 Influenza A (Taiwan)
reported_endpoint: EC50 (µg/mL)
Answers are plain numbers, in µg/mL.

Exam item: Could you share what EC50 was measured for C=CC1c2c(S(=O)(=O)O)cc3cc(S(=O)(=O)O)c(c(O)c3c2O)C(C=C)c2c(S(=O)(=O)O)cc3cc(S(=O)(=O)O)c(c(O)c3c2O)C(C=C)c2c(S(=O)(=O)O)cc3cc(S(=O)(=O)O)c(c(O)c3c2O)C(C=C)c2c(S(=O)(=O)O)cc3cc(S(=O)(=O)O)c1c(O)c3c2O (stereo not shown) [KY-97] , tested on Influenza A (Taiwan)?
Marked response: 5

====

- Tested on: HIV-HXB
- assay_explanation: Inhibition of syncytia formation, HIV-HXB (HTLV-IIIB)
- measurement_conditions: Human immunodeficiency virus 1, 18 h, read-out: HIV-HXB ED100, complete inhibition of syncytia formation
reported_endpoint: EC100 (µg/mL)
Answers are plain numbers, in µg/mL.

Look at each molecule and report its EC100.
1. COS(=O)(=O)c1cc2cc(S(=O)(=O)OC)c3c(O)c2c(O)c1Cc1c(S(=O)(=O)OC)cc2cc(S(=O)(=O)OC)c(c(O)c2c1O)Cc1c(S(=O)(=O)OC)cc2cc(S(=O)(=O)OC)c(c(O)c2c1O)Cc1c(S(=O)(=O)OC)cc2cc(S(=O)(=O)OC)c(c(O)c2c1O)C3 [KY-175]
2. COc1c2c(S(=O)(=O)O)cc3cc(S(=O)(=O)O)c(c(OC)c13)C(C(=O)O)c1c(S(=O)(=O)O)cc3cc(S(=O)(=O)O)c(c(OC)c3c1OC)C(C(=O)O)c1c(S(=O)(=O)O)cc3cc(S(=O)(=O)O)c(c(OC)c3c1OC)C(C(=O)O)c1c(S(=O)(=O)O)cc3cc(S(=O)(=O)O)c(c(OC)c3c1OC)C2C(=O)O (centres unmarked) [KY-284]

Marked response:
1: 63; 2: 16

====

Provide the reported IC50 of each item.
- System: HSV-1
- assay_explanation: Plaque reduction assay, HSV-1, Vero cells
- Assay type: cell-based, HSV-1 (Kos-1)
- measurement_conditions: Human alphaherpesvirus 1, Vero, plaque reduction, Vero cells
- Experimental: used in Table 3 were further tested for activity against HSV infection in a plaque reduction assay, as detailed in Example 6. Here Vero cells, after overnight incubation, were exposed to serial dilutions of KY compound, […] incubated for 2 days, then stained and counted for plaque formation. Percent inhibition was determined by dividing plaques produced by total […] effect curve of plaque inhibition (expressed as percent of control), the […] IC50, was determined. […]
Numbers only, in µg/mL.

Consider the reported IC50 for these molecules:
{"columns": ["sample_smiles", "numeric_result"],
 "data": [
  ["O=S(=O)(O)c1c2c(O)c3c(O)c(c(S(=O)(=O)O)c(Br)c3c1Br)Cc1c(S(=O)(=O)O)c(Br)c3c(Br)c(S(=O)(=O)O)c(c(O)c3c1O)Cc1c(S(=O)(=O)O)c(Br)c3c(Br)c(S(=O)(=O)O)c(c(O)c3c1O)Cc1c(S(=O)(=O)O)c(Br)c3c(Br)c(S(=O)(=O)O)c(c(O)c3c1O)C2", 1],
  ["Oc1c2c(S)cc3cc(S)c(c(O)c13)Cc1c(S)cc3cc(S)c(c(O)c3c1O)Cc1c(S)cc3cc(S)c(c(O)c3c1O)Cc1c(S)cc3cc(S)c(c(O)c3c1O)C2", 2.5],
  ["O=S(=O)(O)c1cc2cc(S(=O)(=O)O)c3c(O)c2c(O)c1Cc1c(S(=O)(=O)O)cc2cc(S(=O)(=O)O)c(c(O)c2c1O)Cc1c(S(=O)(=O)O)cc2cc(S(=O)(=O)O)c(c(O)c2c1O)Cc1c(S(=O)(=O)O)cc2cc(S(=O)(=O)O)c(c(O)c2c1O)C3", 2.7],
  ["O=S(=O)(O)c1cc2c(O)c(c1)Cc1cc(S(=O)(=O)O)cc(c1O)Cc1cc(S(=O)(=O)O)cc(c1O)Cc1cc(S(=O)(=O)O)cc(c1O)Cc1cc(S(=O)(=O)O)cc(c1O)Cc1cc(S(=O)(=O)O)cc(c1O)Cc1cc(S(=O)(=O)O)cc(c1O)Cc1cc(S(=O)(=O)O)cc(c1O)C2", 7],
  ["O=S(O)c1cc2cc(S(=O)O)c3c(O)c2c(O)c1Cc1c(S(=O)O)cc2cc(S(=O)O)c(c(O)c2c1O)Cc1c(S(=O)O)cc2cc(S(=O)O)c(c(O)c2c1O)Cc1c(S(=O)O)cc2cc(S(=O)O)c(c(O)c2c1O)C3", 1.5]
]}

Exam item: For the molecule O=S(=O)(O)c1cc2c(O)c(c1)Cc1cc(S(=O)(=O)O)cc(c1O)Cc1cc(S(=O)(=O)O)cc(c1O)Cc1cc(S(=O)(=O)O)cc(c1O)C2 , what IC50 is on record?
Marked response: 5
